For each record, write down the corresponding melting point.

Lookup: Write down melting point measured for item CN1CCN(C2CCC(n3cc(-c4ccc(Oc5ccccc5)cc4)c4c(N)ncnc43)C2)CC1.O=C(O)/C=C\C(=O)O.O=C(O)/C=C\C(=O)O.O=C(O)/C=C\C(=O)O (centres unmarked) (hydrate or solvate)
Found: 168 to 170 °C (dec.)

Lookup: For the molecule Nc1ncnc2c1c(-c1ccc(Oc3ccccc3)cc1)c(Br)n2C1CCOC1 (centres unmarked) , give its reported melting point.
Found: 205 to 206 °C

Lookup: State its melting point for this molecule: `N#Cc1c(NCCc2ccncc2)cccc1Oc1ccc(-c2cn(C3CCOCC3)c3ncnc(N)c23)cc1`
Found: 120 to 123 °C

Lookup: Using known records, supply melting point for Nc1ncnc2c1c(-c1ccc(Oc3ccccc3CN3CCCCC3)cc1)cn2C1CCOC1 (centres unmarked)
Found: 76 to 78 °C

Lookup: Specify reported melting point for the molecule shown: `Nc1ncnc2c1c(-c1ccc(Oc3ccccc3)cc1)cn2CC(=O)NCCOCCO`
Found: 145 to 147 °C

Lookup: # return recorded melting point for input `Nc1ncnc2c1c(-c1ccc(Oc3ccccc3)cc1)cn2C1CCC(=O)CC1`
Found: 252 to 254 °C

Lookup: Query melting point for `Nc1ncnc2c1c(-c1ccc(Oc3ccccc3)cc1)cn2[C@H]1CC[C@@H](N2CCCC2)CC1`
Found: 101 to 104 °C

Lookup: Give melting point for CCOC(=O)C(C)n1cc(-c2ccc(Oc3ccccc3)cc2)c2c(N)ncnc21 (centres unmarked)
Found: 139 to 140 °C

Lookup: Please look at this molecule and report its melting point: `NCc1cccnc1-n1cc(-c2ccc(Oc3ccccc3)cc2)c2c(N)ncnc21.O=C(O)/C=C\C(=O)O.O=C(O)/C=C\C(=O)O`
Found: 131 to 134 °C

Lookup: Item N#Cc1ccccc1Oc1ccc(-c2cn(C3CCOC3)c3ncnc(N)c23)cc1 (centres unmarked) : provide melting point
Found: 201 to 203 °C

Lookup: Give the measured melting point for CN1CCN([C@H]2CCC[C@H](n3cc(-c4ccc(Oc5ccccc5)cc4)c4c(N)ncnc43)C2)CC1.Cl.Cl.Cl (relative stereo) (hydrate or solvate)
Found: 304 to 306 °C (dec.)

Lookup: Please indicate melting point recorded for Nc1ncnc2c1c(-c1ccc(Oc3ccccc3C=O)cc1)cn2C1CCOC1 (centres unmarked)
Found: 185 to 187 °C

Lookup: Using the record for CN1CCN([C@@H]2CCC[C@H](n3cc(-c4ccc(Oc5ccccc5)cc4)c4c(N)ncnc43)C2)CC1.Cl.Cl.Cl (relative stereo) , state its measured melting point.
Found: 224.5 to 226.5 °C (dec.)

Lookup: Fill in reported melting point for this entry: CCN(CC)Cc1ccccc1Oc1ccc(-c2cn(C3CCOC3)c3ncnc(N)c23)cc1 (centres unmarked)
Found: 107 to 110 °C

Lookup: Note melting point for the molecule shown: `N#Cc1cc(F)ccc1Oc1ccc(-c2cn(C3CCOCC3)c3ncnc(N)c23)cc1`
Found: 216 to 217 °C

Lookup: Give me measured melting point, please, for this molecule: `Nc1ncnc2c1c(-c1ccc(Oc3ccccc3)cc1)cn2S(=O)(=O)C1CCCC1`
Found: 188 to 188.5 °C

Lookup: Please indicate melting point recorded for Nc1ncnc2c1c(-c1ccc(Oc3ccccc3)cc1)cn2C1CCOC1 (centres unmarked)
Found: 196 to 196.5 °C

Lookup: Dear colleague, please send me the reported melting point for Nc1ncnc2c1c(-c1ccc(Oc3ccccc3)cc1)cn2C1CCNC1 (centres unmarked) when you can.
Found: 182 to 184 °C

Lookup: State its melting point: Cl.Cl.Nc1ncnc2c1c(-c1ccc(Oc3ccccc3)cc1)cn2C1CCNC1 (centres unmarked) (hydrate or solvate)
Found: 298 °C (dec.)

Lookup: Identify the reported melting point for the following entry. `Cl.NCCn1cc(-c2ccc(Oc3ccccc3)cc2)c2c(N)ncnc21`
Found: 284 to 285 °C

Lookup: Please report melting point for the following molecule: N#Cc1c(NCCc2ccncc2)cccc1Oc1ccc(-c2cn(C3CCOC3)c3ncnc(N)c23)cc1 (centres unmarked)
Found: 212 to 213 °C

Lookup: # return recorded melting point for input Cl.Cl.NCCCCCCCCn1cc(-c2ccc(Oc3ccccc3)cc2)c2c(N)ncnc21.O.O (hydrate or solvate)
Found: 120 °C

Lookup: // fetch melting point given entry CC(C(=O)O)n1cc(-c2ccc(Oc3ccccc3)cc2)c2c(N)ncnc21 (centres unmarked)
Found: 239.5 to 241 °C

Lookup: Read off the recorded melting point for `Nc1ncnc2c1c(-c1ccc(Oc3ccccc3)cc1)cn2CC(=O)NCCN1CCOCC1`
Found: 164 to 165 °C

Lookup: Please give the documented melting point of `CC(C)(C)OC(=O)N1CCC(n2cc(-c3ccc(Oc4ccccc4)cc3)c3c(N)ncnc32)CC1`
Found: 168.5 to 169.5 °C

Lookup: Give melting point for `CC(C)C(=O)n1cc(-c2ccc(Oc3ccccc3)cc2)c2c(N)ncnc21`
Found: 160.5 to 161 °C

Lookup: Give the reported melting point for this molecule. `Nc1ncnc2c1c(-c1ccc(Oc3ccccc3)cc1)cn2CC(=O)NCCN1CCNCC1`
Found: 138 to 140 °C

Lookup: Give a short answer stating reported melting point for `Nc1ncnc2c1c(-c1ccc(Oc3ccccc3)cc1)cn2CCN1C(=O)c2ccccc2C1=O` .
Found: 111 to 112 °C

Lookup: Please report melting point for the following molecule: `CN(C)[C@H]1CC[C@H](n2cc(-c3ccc(Oc4ccccc4)cc3)c3c(N)ncnc32)CC1`
Found: 207.5 to 210 °C

Lookup: Fill in melting point for record `Nc1ncnc2c1c(-c1ccc(Oc3ccccc3)cc1)cn2C1CCC2(CC1)OCCO2`
Found: 193 to 194 °C

Lookup: Quickly give me recorded melting point for Cl.Cl.Nc1ncnc2c1c(-c1ccc(Oc3ccccc3)cc1)cn2C1CNOC1 (centres unmarked)
Found: 208 °C (dec.)

Lookup: Kindly indicate its recorded melting point. Item: `N#Cc1cccnc1-n1cc(-c2ccc(Oc3ccccc3)cc2)c2c(N)ncnc21`
Found: 242 to 242.5 °C

----------
Would you kindly list melting point for each of these molecules?

Lookup: Supply melting point value. Item: COCCCNc1cccc(Oc2ccc(-c3cn(C4CCOC4)c4ncnc(N)c34)cc2)c1C#N (stereo not shown)
Found: 183 to 184 °C

Lookup: Specify reported melting point for the molecule shown: Nc1ncnc2c1c(-c1ccc(Oc3ccccc3)cc1)cn2C1COCC1O (stereo not shown)
Found: 234.5 to 235.5 °C

Lookup: Note melting point for the molecule shown: COCCNCc1ccccc1Oc1ccc(-c2cn(C3CCOC3)c3ncnc(N)c23)cc1 (stereo not shown)
Found: 66 to 68 °C

Lookup: Annotate the molecule `Nc1ncnc2c1c(-c1ccc(Oc3ccccc3)cc1)cn2CCCCCCCCN1C(=O)c2ccccc2C1=O` with its measured melting point.
Found: 85 to 86 °C

----------
parameter measured: melting point

Lookup: Please indicate melting point recorded for Nc1ncnc2c1c(-c1ccc(Oc3ccc(F)cc3)cc1)cn2C1CCOC1 (stereo not shown)
Found: 198 to 199 °C

Lookup: // fetch melting point given entry `N#Cc1c(OCCN2CCOCC2)cccc1Oc1ccc(-c2cn(C3CCOCC3)c3ncnc(N)c23)cc1`
Found: 110 °C

Lookup: Supply measured melting point of CCN1CCCC1CNC(=O)Cn1cc(-c2ccc(Oc3ccccc3)cc2)c2c(N)ncnc21 (stereo not shown) in your reply.
Found: 122 to 122.5 °C

Lookup: Please supply the value of reported melting point for the item `COCCCNc1cccc(Oc2ccc(-c3cn(C4CCOCC4)c4ncnc(N)c34)cc2)c1C#N`
Found: 205 to 207 °C

Lookup: Consider the molecule `CCOC(=O)Cn1cc(-c2ccc(Oc3ccccc3)cc2)c2c(N)ncnc21` . State its measured melting point.
Found: 161 to 161.3 °C

Lookup: State its melting point: `CN(C)[C@H]1CC[C@@H](n2cc(-c3ccc(Oc4ccccc4)cc3)c3c(N)ncnc32)CC1`
Found: 180 to 182 °C

Lookup: Supply reported melting point belonging to this molecule: Nc1ncnc2c1c(-c1ccc(Oc3cccc(CN4CCOCC4)c3)cc1)cn2C1CCOC1 (stereo not shown)
Found: 83 to 85 °C

Lookup: Supply recorded melting point for CC(C)(C)OC(=O)N1CCC(n2cc(-c3ccc(Oc4ccccc4)cc3)c3c(N)ncnc32)C1 (stereo not shown) here.
Found: 168 to 170 °C

Lookup: Please supply the value of reported melting point for the item Nc1ncnc2c1c(-c1ccc(Oc3ccccc3CN3CCOCC3)cc1)cn2C1CCOC1 (stereo not shown)
Found: 169 to 171 °C

Lookup: Give the reported value of melting point for this record: `CC(C)(C(N)=O)n1cc(-c2ccc(Oc3ccccc3)cc2)c2c(N)ncnc21`
Found: 227 to 228 °C

Lookup: Return melting point (reported value) for this molecule: N#Cc1c(NCCCn2ccnc2)cccc1Oc1ccc(-c2cn(C3CCOC3)c3ncnc(N)c23)cc1 (stereo not shown)
Found: 110 °C

Lookup: Please supply the value of reported melting point for the item Nc1ncnc2c1c(-c1ccc(Oc3ccccc3)cc1)cn2C1CCC(O)CC1 (stereo not shown)
Found: 199 to 200 °C

Lookup: Consider the molecule Nc1ncnc2c1c(-c1ccc(Oc3ccc(CN4CCOCC4)cc3)cc1)cn2C1CCOC1 (stereo not shown) . State its measured melting point.
Found: 142 to 144 °C

Lookup: // Input: `N#Cc1ccccc1Oc1ccc(-c2cn(C3CCOCC3)c3ncnc(N)c23)cc1` . Output its melting point only.
Found: 125 °C

Lookup: Please list melting point recorded for the molecule CC(C(=O)NCCN(C)C)n1cc(-c2ccc(Oc3ccccc3)cc2)c2c(N)ncnc21 (stereo not shown)
Found: 163 to 164 °C

Lookup: Look up and state reported melting point for `COc1cc(-c2cn([C@H]3CC[C@H](N4CCN(C)CC4)CC3)c3ncnc(N)c23)ccc1NC(=O)OCc1ccccc1.O=C(O)/C=C\C(=O)O.O=C(O)/C=C\C(=O)O.O=C(O)/C=C\C(=O)O`
Found: 146 to 148 °C
